subject_of_test: mouse P2Y10 (Mus musculus)
Construct: expressed in transfected cells; host or cells: HEK293
Sequence (Q8BFU7 whole entry): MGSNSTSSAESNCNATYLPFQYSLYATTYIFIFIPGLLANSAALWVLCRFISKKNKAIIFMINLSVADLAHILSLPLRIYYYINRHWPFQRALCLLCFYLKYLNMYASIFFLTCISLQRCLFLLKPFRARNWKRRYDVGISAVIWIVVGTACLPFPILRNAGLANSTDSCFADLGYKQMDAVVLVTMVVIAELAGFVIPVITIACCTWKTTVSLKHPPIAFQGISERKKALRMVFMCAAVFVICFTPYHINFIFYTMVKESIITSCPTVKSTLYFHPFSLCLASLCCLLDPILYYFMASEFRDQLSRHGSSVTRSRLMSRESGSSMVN
assay_notes: TGFα shedding assay, agonistic activity on P2Y10
Format: cell-based
Design: key: an activity that is 100 folds that of control compound 1 as +++++; an activity that is 10 folds that of control compound 1 as ++++; the activity of the control compound 1 (LPS18:1) as +++; an activity that is 1/10 as ++; an activity that is 1/100 as +; an activity below that as −
conditions: HEK293 cells transfected with mouse P2Y10 and AP labeled TGFα; activity relative to control compound 1 (LPS18:1) = +++
property: P2Y10/LPS2 agonistic activity, TGFα shedding assay

> print(dat)
                                   compound  recorded.result
1  C[C@H](COC(=O)CCc1ccccc1OCc1cccc(Oc2ccccc2)c1)OP(=O)(O)OC[C@H](N)C(=O)O [Example 3]               ++
2  CCCCCCCCCCCOc1ccc(C(C)(C)C)cc1CCC(=O)O[C@H]1COCC[C@@H]1OP(=O)(O)OC[C@H](N)C(=O)O [Example 12]                +
3  N[C@@H](COP(=O)(O)OC[C@H]1OCCC[C@H]1OC(=O)CCc1ccccc1OCc1cccc(Oc2ccccc2)c1)C(=O)O [Example 18]                −
4  CCCCCCCCCCCOc1ccccc1CCC(=O)OC[C@H]1OCC=C[C@@H]1OP(=O)(O)OC[C@H](N)C(=O)O [Example 19]               ++
5  CCCCCCCC/C=C\CCCCCCCC(=O)OC[C@@H](C)OP(=O)(O)OC[C@H](N)C(=O)O [Example 1]               ++

Dear colleague, could you please provide P2Y10/LPS2 agonistic activity, TGFα shedding assay for the compounds listed below?
1. CCCCCCCCCCCOc1ccccc1CCC(=O)O[C@H]1COCC[C@@H]1OP(=O)(O)OC[C@H](N)C(=O)O [Example 11]
2. CCCCCCCC/C=C\CCCCCCCC(=O)OC[C@@H](COCC)OP(=O)(O)OC[C@H](N)C(=O)O [Example 6]
3. CCCCCCCC/C=C\CCCCCCCC(=O)OC[C@H](COC)OP(=O)(O)OC[C@H](N)C(=O)O [Example 5]
4. CCCCCCCCCCCOc1ccccc1CCC(=O)O[C@H]1CCCO[C@@H]1COP(=O)(O)OC[C@H](N)C(=O)O [Example 14]
5. N[C@@H](COP(=O)(O)O[C@@H]1CCCO[C@@H]1COC(=O)CCc1ccccc1OCc1cccc(Oc2ccccc2)c1)C(=O)O [Example 17]

Output:
1: ++; 2: +; 3: +; 4: +; 5: −

* * *

subject_of_test: mouse P2Y10 (Mus musculus)
Construct: expressed in transfected cells; host or cells: HEK293
assay_notes: TGFα shedding assay, agonistic activity on P2Y10
Assay type: cell-based
Set-up: key: an activity that is 100 folds that of control compound 1 as +++++; an activity that is 10 folds that of control compound 1 as ++++; the activity of the control compound 1 (LPS18:1) as +++; an activity that is 1/10 as ++; an activity that is 1/100 as +; an activity below that as −
conditions: HEK293 cells transfected with mouse P2Y10 and AP labeled TGFα; activity relative to control compound 1 (LPS18:1) = +++
property: P2Y10/LPS2 agonistic activity, TGFα shedding assay

Examples with answers:
> print(dat)
                                 chem.smiles  recorded.result
 1  CCCCCCCCCCCOc1ccccc1CCC(=O)OC[C@H]1OCCC[C@@H]1OP(=O)(O)OC[C@H](N)C(=O)O               ++
 2  CCCCCCCCCCCOc1ccccc1CCC(=O)O[C@H]1CCOC[C@@H]1OP(=O)(O)OC[C@H](N)C(=O)O           ++~+++
 3  N[C@@H](COP(=O)(O)O[C@@H]1C=CCO[C@@H]1COC(=O)CCc1ccccc1OCc1cccc(Oc2ccccc2)c1)C(=O)O               ++
 4  N[C@@H](COP(=O)(O)O[C@H]1C=CCO[C@@H]1COC(=O)CCc1ccccc1OCc1cccc(Oc2ccccc2)c1)C(=O)O           ++~+++
 5  CCCCCCCC/C=C\CCCCCCCC(=O)OC[C@H]1OCCC[C@@H]1OP(=O)(O)OC[C@H](N)C(=O)O                +
 6  COC[C@H](COC(=O)CCc1ccccc1OCc1cccc(Oc2ccccc2)c1)OP(=O)(O)OC[C@H](N)C(=O)O             +~++
 7  CCCCCCCC/C=C\CCCCCCCC(=O)OC[C@@H](COC)OP(=O)(O)OC[C@H](N)C(=O)O                +
 8  CCCCCCCCCCCOc1ccccc1CCC(=O)O[C@@H]1COCC[C@H]1OP(=O)(O)OC[C@H](N)C(=O)O           ++~+++
 9  CCCCCCCC/C=C\CCCCCCCC(=O)OC[C@@H](COCc1ccccc1)OP(=O)(O)OC[C@H](N)C(=O)O                −
10  N[C@@H](COP(=O)(O)OC[C@H]1OCCC[C@@H]1OC(=O)CCc1ccccc1OCc1cccc(Oc2ccccc2)c1)C(=O)O              −~+

Dear colleague, could you please provide P2Y10/LPS2 agonistic activity, TGFα shedding assay for the compounds listed below?
1. CCCCCCCCCCCOc1ccccc1CCC(=O)O[C@@H]1CCOC[C@H]1OP(=O)(O)OC[C@H](N)C(=O)O
2. CCCCCCCC/C=C\CCCCCCCC(=O)OC[C@H]1OCC=C[C@@H]1OP(=O)(O)OC[C@H](N)C(=O)O
3. CCCCCCCC/C=C\CCCCCCCC(=O)OC[C@H]1OCCC[C@H]1OP(=O)(O)OC[C@H](N)C(=O)O
4. N[C@@H](COP(=O)(O)O[C@H]1CCCO[C@@H]1COC(=O)CCc1ccccc1OCc1cccc(Oc2ccccc2)c1)C(=O)O

Output:
1: +++; 2: ++; 3: −; 4: −

* * *

subject_of_test: mouse GPR34 (Mus musculus, UniProt Q9R1K6)
Construct: expressed in transfected cells; host or cells: HEK293
Sequence (Q9R1K6 whole entry): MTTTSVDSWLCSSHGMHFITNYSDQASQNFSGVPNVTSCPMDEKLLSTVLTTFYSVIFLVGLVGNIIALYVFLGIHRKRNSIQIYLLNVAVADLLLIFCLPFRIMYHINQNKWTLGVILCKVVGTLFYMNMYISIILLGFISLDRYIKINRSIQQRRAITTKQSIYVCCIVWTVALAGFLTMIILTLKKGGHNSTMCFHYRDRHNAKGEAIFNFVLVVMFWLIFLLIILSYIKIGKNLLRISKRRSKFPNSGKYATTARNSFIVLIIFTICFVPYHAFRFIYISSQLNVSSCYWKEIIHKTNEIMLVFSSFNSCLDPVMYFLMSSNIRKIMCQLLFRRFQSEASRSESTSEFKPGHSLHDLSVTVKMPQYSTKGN
assay_notes: TGFα shedding assay, agonistic activity on GPR34
Assay type: cell-based
conditions: HEK293 cells transfected with mouse GPR34 and AP labeled TGFα; activity relative to control compound 1 (LPS18:1) = +++
Procedure: [Test Example 1]Assay of Agonistic Activity by TGFα Shedding Assay HEK293 cells were suspended in the Dulbecco's modified Eagle's medium (DMEM) containing 10% fetal bovine serum (FCS) to exist in an amount of 2.0×10^5 cells/mL, and they were seeded in 60 mm dishes at 4 mL per dish. […] The OD405 was measured with a micro plate reader (background), then after heating at 37° C. for an hour, OD405 was re-measured. […]
property: GPR34/LPS2 agonistic activity, TGFα shedding assay

Examples with answers:
> print(dat)
                                chem.smiles  recorded.result
1  CCCCCCCCCCCOc1ccccc1CCC(=O)O[C@@H]1COCC[C@H]1OP(=O)(O)OC[C@H](N)C(=O)O       ++++~+++++
2  CCCCCCCCCCCOc1ccccc1CCC(=O)O[C@H]1CCCO[C@@H]1COP(=O)(O)OC[C@H](N)C(=O)O                −
3  CCCCCCCC/C=C\CCCCCCCC(=O)OC[C@@H](COCC)OP(=O)(O)OC[C@H](N)C(=O)O            +++++
4  CCCCCCCC/C=C\CCCCCCCC(=O)OC[C@@H](COCc1ccccc1)OP(=O)(O)OC[C@H](N)C(=O)O               ++
5  N[C@@H](COP(=O)(O)O[C@@H]1C=CCO[C@@H]1COC(=O)CCc1ccccc1OCc1cccc(Oc2ccccc2)c1)C(=O)O         +++~++++
6  N[C@@H](COP(=O)(O)OC[C@H]1OCCC[C@H]1OC(=O)CCc1ccccc1OCc1cccc(Oc2ccccc2)c1)C(=O)O       ++++~+++++

Dear colleague, could you please provide GPR34/LPS2 agonistic activity, TGFα shedding assay for the compounds listed below?
1. CCCCCCCC/C=C\CCCCCCCC(=O)OC[C@H]1OCCC[C@H]1OP(=O)(O)OC[C@H](N)C(=O)O
2. N[C@@H](COP(=O)(O)O[C@@H]1CCCO[C@@H]1COC(=O)CCc1ccccc1OCc1cccc(Oc2ccccc2)c1)C(=O)O
3. CCCCCCCC/C=C\CCCCCCCC(=O)OC[C@@H](C)OP(=O)(O)OC[C@H](N)C(=O)O
4. CCCCCCCCCCCOc1ccccc1CCC(=O)O[C@H]1CCOC[C@@H]1OP(=O)(O)OC[C@H](N)C(=O)O
5. CCCCCCCC/C=C\CCCCCCCC(=O)OC[C@H]1OCCC[C@@H]1OP(=O)(O)OC[C@H](N)C(=O)O
6. N[C@@H](COP(=O)(O)OC[C@H]1OCCC[C@@H]1OC(=O)CCc1ccccc1OCc1cccc(Oc2ccccc2)c1)C(=O)O

Output:
1: ++; 2: ++++; 3: ++++; 4: −; 5: +++~++++; 6: ++

Dear colleague, could you please provide GPR34/LPS2 agonistic activity, TGFα shedding assay for the compounds listed below?
1. C[C@H](COC(=O)CCc1ccccc1OCc1cccc(Oc2ccccc2)c1)OP(=O)(O)OC[C@H](N)C(=O)O
2. CCCCCCCCCCCOc1ccccc1CCC(=O)O[C@H]1COCC[C@@H]1OP(=O)(O)OC[C@H](N)C(=O)O
3. CCCCCCCC/C=C\CCCCCCCC(=O)OC[C@H](COC)OP(=O)(O)OC[C@H](N)C(=O)O
4. CCCCCCCCCCCOc1ccccc1CCC(=O)OC[C@H]1OCC=C[C@@H]1OP(=O)(O)OC[C@H](N)C(=O)O
5. CCCCCCCC/C=C\CCCCCCCC(=O)OC[C@@H](COC)OP(=O)(O)OC[C@H](N)C(=O)O
6. COC[C@H](COC(=O)CCc1ccccc1OCc1cccc(Oc2ccccc2)c1)OP(=O)(O)OC[C@H](N)C(=O)O
7. CCCCCCCCCCCOc1ccccc1CCC(=O)OC[C@H]1OCCC[C@@H]1OP(=O)(O)OC[C@H](N)C(=O)O

Output:
1. +++++
2. −
3. ++
4. −
5. ++++
6. +++++
7. −~++

All values here come from patent US9469665B2.
